The reported measurements were obtained from PubChem BioAssay (NCI).

test: NCI Yeast Anticancer Drug Screen. Data for the sgs1 mgt1 strain (AID 161);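 note: 0% = growth of cultures given vehicle only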; conditions: S. cerevisiae sgs1 mgt1 strain, at 50.0 µM, hits give high values
This is part of a sample that, as a whole, favours compounds with a hit. Of some 79,000 tested, about 15% had one in any assay.
reported.property: growth inhibition (%)
Kindly provide the numeric value in % only, without the unit symbol.

Reference set, count: 5
{"columns": ["molecule", "growth inhibition [%]"],
 "data": [
  ["O=S(CC(O)(c1ccccc1)c1ccccc1)c1ccccc1 (configuration not stated)", 18],
  ["CC(=O)OC1(C(=O)OCC2CCCO2)CCCC1 (configuration not stated)", -3.5],
  ["O=S(=O)(O)SCCNCCCCc1ccccc1", 2.3],
  ["O=C1Cn2c(c3c(nc2=O)CCCC3)N1", -10.3],
  ["O=C1CCC=Cc2c(O)ccc(O)c21", 17.8]
]}

Name the reported growth inhibition value associated with the molecule "C=CCCCCCCCCC(=O)Nc1cc2c3c(c1)CCCN3CCC2" 1.1

Name the reported growth inhibition value associated with the molecule O=[N+]([O-])c1ccccc1S(=O)c1ccccc1 (configuration not stated) -4.3

Name the reported growth inhibition value associated with the molecule "COc1ccc2c(=O)c([Se]c3coc4cc(OC)ccc4c3=O)coc2c1" 3.15

###

test: NCI Yeast Anticancer Drug Screen. Data for the mlh1 rad18 strain (AID 175); conditions: S. cerevisiae mlh1 rad18 strain growth inhibition; at 50.0 µM; hits give high values
About 79,000 compounds went through this panel and 15% of them were active in at least one assay; those are over-represented in the sample as a whole. Where a SMILES comes first, the peptide text is derived from it. The star is where a group is joined. Myristoyl = CCCCCCCCCCCCCC(=O)*
The following molecules are listed with their measured growth inhibition values.
Kindly provide the numeric value in % only, without the unit symbol.

Reference set, count: 5
{"columns": ["molecule", "uom", "numeric.result"],
 "data": [
  ["C/C(=N\\NS(=O)(=O)c1ccc(C)cc1)P(=O)(O)O", "%", 22.6],
  ["CCCCCCCCCCCCCC(=O)NCC(=O)NC(C)C(=O)NC(CCCNC(=N)N)C(=O)NC(C)C(=O)NC(CO)C(=O)NC(C(=O)NC(CC(C)C)C(=O)NC(CO)C(=O)NCC(=O)NCC(=O)NC(CCC(=O)O)C(=O)NC(CC(C)C)C(=O)NC(CC(=O)O)C(=O)NC(CCCNC(=N)N)C(=O)NC(Cc1c[nH]c2ccccc12)C(=O)NC(Cc1ccc(O)cc1)C(N)=O)C(C)C (configuration not stated) (Myristoyl-GARASVLSGGELDRWY-NH2; configuration not given here)", "%", -6.5],
  ["O=C(Nc1ccc2c(c1)OCO2)O/N=C\\c1ccccn1", "%", 42.1],
  ["COC(=O)/C=C1\\C(=O)c2ccccc2-c2ccccc21", "%", 51.6],
  ["CNC(=O)c1ccccc1N=NN(C)C", "%", 40.5]
]}

Name the reported growth inhibition value associated with the molecule "O=C1CSC(/C(=C/c2ccccc2)c2nc3ccccc3[nH]2)=N1" -0.25

Name the reported growth inhibition value associated with the molecule "O=C(OCc1ccccc1CN1CCCC1)c1ccc([N+](=O)[O-])cc1Cl" -54.8

###

The following compounds are listed with their measured growth inhibition values.
test: NCI Yeast Anticancer Drug Screen. Data for the sgs1 mgt1 strain (AID 161);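 note: 0% = growth of cultures given vehicle only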; conditions: S. cerevisiae sgs1 mgt1 strain, at 50.0 µM, hits give high values
This is part of a sample that, as a whole, favours compounds with a hit. Of some 79,000 tested, about 15% had one in any assay. Where a SMILES comes first, the peptide text is derived from it. [ ]: non-standard residue; d: D form. The star is where a group is joined. ξ: configuration not given here. Cbz = O=C(OCc1ccccc1)*; ξK = NCCCCC(N)C(=O)O
Kindly provide the numeric value in % only, without the unit symbol.

{"columns": ["compound", "reported.property", "numeric.result"],
 "data": [
  ["CNCCCN1CCCCC1", "growth inhibition", 22.4],
  ["O=C(O)CC(c1ccccc1Cl)C(CC(=O)O)c1ccccc1Cl (stereo not given)", "growth inhibition", -2.55],
  ["NCCCCC(NC(=O)OCc1ccccc1)C(=O)NCC(N)=O (stereo not given) (Cbz-[ξK]-Gly-NH2)", "growth inhibition", 5]
]}

Name the reported growth inhibition value associated with the compound O=S1(=O)C(Cl)c2ccccc2-c2ccccc2C1Cl (stereo not given) -10.4

Name the reported growth inhibition value associated with the compound COc1ccccc1NC(=O)C(CC(C(=O)Nc1ccccc1OC)/C(C)=N/NC(=O)c1ccccc1O)/C(C)=N/NC(=O)c1ccccc1O (stereo not given) -28.2

Name the reported growth inhibition value associated with the compound "O=c1nc(-c2ccccc2)cc(Cc2ccc3ccccc3n2)[nH]1" 26.1

Name the reported growth inhibition value associated with the compound "NC(N)=N/N=C/c1oc(-c2ccc(S(=O)(=O)O)o2)c(-c2ccc(S(=O)(=O)O)o2)c1[N+](=O)[O-]" -22
